System: CYP3A4
EXPERIMENTAL DETAILS: Study 2
TEST CONTEXT: human, in vivo, 2 mg
MEASUREMENT LABEL: Tmax (min)

* Cc1ncc2n1-c1ccc(Cl)cc1C(c1ccccc1F)=NC2 [midazolam, reference compound] | 30

###

System: CYP2B6
EXPERIMENTAL DETAILS: in vitro
Type: in vitro ADME
TEST CONTEXT: human, mRNA levels EC50, donor 2, 72 h
MEASUREMENT LABEL: EC50 at 72 h

• CCC(=O)C(C[C@H](C)N(C)C)(c1ccccc1)c1ccccc1 [esmethadone] = 5.36 µM

###

System: CYP3A4
EXPERIMENTAL DETAILS: Study 2
TEST CONTEXT: human, in vivo, po, 2 mg
MEASUREMENT LABEL: Cmax (ng/mL)

- Cc1ncc2n1-c1ccc(Cl)cc1C(c1ccccc1F)=NC2 [midazolam, reference compound]: 11.5
